# target_under_test: oestrogen receptor (ER) (Homo sapiens, UniProt P03372)
# Construct: These MVLN cells express, along with the functional oestrogen receptor (ER), a reporter construct; endogenous in cells
# Sequence (P03372 1-595): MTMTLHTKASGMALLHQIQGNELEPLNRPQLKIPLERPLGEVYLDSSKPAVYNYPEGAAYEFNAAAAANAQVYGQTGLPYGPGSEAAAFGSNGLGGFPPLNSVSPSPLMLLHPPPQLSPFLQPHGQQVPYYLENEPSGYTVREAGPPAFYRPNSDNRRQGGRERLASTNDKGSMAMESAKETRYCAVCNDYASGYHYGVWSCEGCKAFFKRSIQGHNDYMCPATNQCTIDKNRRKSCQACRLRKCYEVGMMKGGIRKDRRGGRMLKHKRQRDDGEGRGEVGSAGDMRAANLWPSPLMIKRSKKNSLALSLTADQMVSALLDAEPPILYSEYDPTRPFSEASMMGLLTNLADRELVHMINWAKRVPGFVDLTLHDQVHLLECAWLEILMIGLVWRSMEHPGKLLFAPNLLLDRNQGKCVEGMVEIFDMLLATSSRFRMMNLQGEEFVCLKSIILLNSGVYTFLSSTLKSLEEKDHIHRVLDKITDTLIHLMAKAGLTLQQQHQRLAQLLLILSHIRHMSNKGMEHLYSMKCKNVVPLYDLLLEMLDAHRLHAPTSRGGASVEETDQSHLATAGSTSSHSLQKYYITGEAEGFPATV
# assay_notes: Anti-oestrogenic action in MVLN cells (inhibition of estradiol-induced luciferase)
# condition: inhibition of estradiol-induced luciferase signal, value of Ex. 44 is a mean value, read-out: Antioestrogenic action in vitro: MVLN transactivation antagonism IC50
property_name: IC50 (nM)
Respond numerically; units are nM and should not be typed.

For `CN(CCCCCCC1=C(c2ccc(F)cc2)CCCc2cc(O)ccc21)CCCS(=O)(=O)CC1CCC(F)(F)CC1` the molecule record lists IC50 as 13

For `CN(CCCCCCC1=C(c2ccc(F)cc2)CCCc2c1ccc(O)c2F)CCCS(=O)(=O)CCCC(F)(F)C(F)(F)F` the molecule record lists IC50 as 11

For `C[C@H](O)CN(CCCCCCC1=C(c2ccc(F)cc2)CCCc2cc(O)ccc21)CCCCS(=O)(=O)CCCC(F)(F)F` the molecule record lists IC50 as 5

For `CN(CCCCCCC1=C(c2ccc(F)cc2)CCCc2cc(O)ccc21)CCCCS(=O)(=O)C1CCC(F)(F)CC1` the molecule record lists IC50 as 6

For `CN(CCCCCCC1=C(c2ccc(F)cc2)CCCc2cc(O)ccc21)CCCS(=O)(=O)CCC(F)(F)F` the molecule record lists IC50 as 85

For CC(C)(O)CN(CCCCCCC1=C(c2ccc(F)cc2)CCCc2cc(O)ccc21)CCC[S+]([O-])CCC(F)(F)F (stereo not shown) the molecule record lists IC50 as 56

For `O=C(O)CCN(CCCCCCC1=C(c2ccc(F)cc2)CCCc2cc(O)ccc21)CCCCS(=O)(=O)CCCC(F)(F)F` the molecule record lists IC50 as 19

For `COCCN(CCCCCCC1=C(c2ccc(F)c(F)c2)CCCc2cc(O)ccc21)CCCS(=O)(=O)CCCC(F)(F)C(F)(F)F` the molecule record lists IC50 as 16

For `CN(CCCCCCC1=C(c2cc(F)cc(F)c2)CCCc2cc(O)ccc21)CCCS(=O)(=O)CCCC(F)(F)C(F)(F)F` the molecule record lists IC50 as 48

For `CN(CCCCCCC1=C(c2cc(F)cc(F)c2)CCCc2cc(O)ccc21)CCCCS(=O)(=O)CCCC(F)(F)F` the molecule record lists IC50 as 5.6

For `O=S(=O)(CCCN(CCO)CCCCCCC1=C(c2ccc(F)cc2)CCCc2cc(O)ccc21)CCC(F)(F)F` the molecule record lists IC50 as 29

For `COCCN(CCCCCCC1=C(c2ccc(F)cc2)CCCc2c1ccc(O)c2F)CCCS(=O)(=O)CCCC(F)(F)C(F)(F)F` the molecule record lists IC50 as 170

For `CN(CCCCCCC1=C(c2ccc(F)c(F)c2)CCCc2cc(O)ccc21)CCCCCS(=O)(=O)CCC(F)(F)F` the molecule record lists IC50 as 56

For `CCN(CCCCCCC1=C(c2cc(F)cc(F)c2)CCCc2cc(O)ccc21)CCCS(=O)(=O)CCC(F)(F)F` the molecule record lists IC50 as 168

For `CC(C)(O)CN(CCCCCCC1=C(c2cc(F)cc(F)c2)CCCc2cc(O)ccc21)CCCS(=O)(=O)CCCC(F)(F)C(F)(F)F` the molecule record lists IC50 as 20

For `COCCN(CCCCCCC1=C(c2cc(F)cc(F)c2)CCCc2cc(O)ccc21)CCCS(=O)(=O)CCCC(F)(F)C(F)(F)F` the molecule record lists IC50 as 26

For CN(CCCCCCC1=C(c2ccc(F)c(F)c2)CCCc2cc(O)ccc21)CCC[S+]([O-])CCCC(F)(F)C(F)(F)F (stereo not shown) the molecule record lists IC50 as 8

For `CN(CCCCCCC1=C(c2ccc(F)cc2)CCCc2cc(O)ccc21)CCCCS(=O)(=O)CCCC(F)(F)F` the molecule record lists IC50 as 17

For `COCCCN(CCCCCCC1=C(c2ccc(F)cc2)CCCc2c1ccc(O)c2F)CCCS(=O)(=O)CCCC(F)(F)C(F)(F)F` the molecule record lists IC50 as 42

For `O=S(=O)(CCCN(CCO)CCCCCCC1=C(c2ccc(F)cc2)CCCc2cc(O)c(F)cc21)CCCC(F)(F)F` the molecule record lists IC50 as 5

For `CN(CCCCCCC1=C(c2ccc(F)cc2)CCCc2cc(O)ccc21)CCCCS(=O)(=O)CCC(F)(F)F` the molecule record lists IC50 as 30

For `CN(CCCCCCC1=C(c2ccc(F)cc2)CCCc2cc(O)c(F)cc21)CCCCS(=O)(=O)CCC(F)(F)F` the molecule record lists IC50 as 10

For `CN(CCCCCCC1=C(c2ccc(F)c(F)c2)CCCc2cc(O)ccc21)CCCCS(=O)(=O)CCC(F)(F)F` the molecule record lists IC50 as 26

For `CN(CCCCCCC1=C(c2ccc(F)cc2)CCCc2cc(O)ccc21)CCCS(=O)(=O)CCCCC(F)(F)F` the molecule record lists IC50 as 8

For `CN(CCCCCCC1=C(c2ccc(F)cc2)CCCc2cc(O)ccc21)CCCS(=O)(=O)CCCC(F)(F)F` the molecule record lists IC50 as 18

For CN(CCCCCCC1=C(c2cc(F)cc(F)c2)CCCc2cc(O)ccc21)CCC[S+]([O-])CCC(F)(F)F (stereo not shown) the molecule record lists IC50 as 46

For `CN(CCCCCCC1=C(c2ccc(F)cc2F)CCCc2cc(O)ccc21)CCCCS(=O)(=O)CCC(F)(F)C(F)(F)F` the molecule record lists IC50 as 15

For `CN(CCCCCCC1=C(c2ccc(F)cc2)CCCc2cc(O)ccc21)CCCCS(=O)(=O)CCC(F)(F)C(F)(F)F` the molecule record lists IC50 as 11
